Reported values of TCD0 (maximum non-toxic concentration) for individual entries
system: MDCK cells; conditions: dog

Sample answers from the record:
[
  {
    "Compound": "CC(=O)Oc1ccccc1C(=O)O [aspirin]",
    "Tested System": "MDCK cells",
    "TCD0 (maximum non-toxic concentration)": ">0.5 mg/mL"
  },
  {
    "Compound": "O=C1CCC[C@@H]2[C@H]3CCCN4CCC[C@H](CN12)[C@@H]34 [sophoridine]",
    "Tested System": "MDCK cells",
    "TCD0 (maximum non-toxic concentration)": ">2 mg/mL"
  },
  {
    "Compound": "O=C1CCC[C@@H]2[C@H]3CCC[N+]4([O-])CCC[C@@H](CN12)[C@@H]34 (stereo partly shown) [oxymatrine]",
    "Tested System": "MDCK cells",
    "TCD0 (maximum non-toxic concentration)": ">2 mg/mL"
  }
]

Query: What does the data say about its TCD0 (maximum non-toxic concentration)? Entry: O=C1CCC[C@@H]2[C@H]3CCC[N+]4([O-])CCC[C@H](CN12)[C@@H]34 (stereo partly shown) [oxysophoridine]
Response: >2 mg/mL
